# tgt: GTP:AMP phosphotransferase AK3, mitochondrial (Rattus norvegicus) (UniProt P29411)
# Sequence (P29411 whole entry): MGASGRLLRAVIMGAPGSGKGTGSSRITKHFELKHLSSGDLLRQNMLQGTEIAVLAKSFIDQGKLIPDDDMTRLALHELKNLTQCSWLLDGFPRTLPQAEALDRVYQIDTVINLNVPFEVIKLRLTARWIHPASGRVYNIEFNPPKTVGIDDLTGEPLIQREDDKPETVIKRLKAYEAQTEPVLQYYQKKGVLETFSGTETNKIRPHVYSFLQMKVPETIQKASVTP
# experimentSummary: Inhibition index was the ratio between KM of AMP and Ki of AK III
# Assay type: functional
Listing of entries alongside the reported Inhibition index.
Please respond with just the number, no unit label.

Use these answered entries as a reference point.
CO[C@@H]1[C@H](O)[C@@H](COP(=O)(O)O)O[C@H]1n1cnc2c(N)ncnc21 :: 0.017
C[C@@H](OP(=O)(O)O)[C@H]1OC(n2cnc3c(N)ncnc32)[C@H](O)[C@@H]1O (some centres undefined) :: 0.008
CO[C@H]1[C@@H](O)[C@H](n2cnc3c(N)ncnc32)O[C@@H]1COP(=O)(O)O :: 0.13
CCNc1nc(N)c2ncn([C@@H]3O[C@H](COP(=O)(O)O)[C@@H](O)[C@H]3O)c2n1 :: 0.015
CCC1O[C@@H]2[C@H](O1)[C@@H](COP(=O)(O)O)O[C@H]2n1cnc2c(N)ncnc21 (some centres undefined) :: 0.032
Nc1nc(Cl)nc2c1ncn2[C@@H]1O[C@H](COP(=O)(O)O)[C@@H](O)[C@H]1O :: 0.05

Looking up CC1O[C@@H]2[C@H](O1)[C@@H](COP(=O)(O)O)O[C@H]2n1cnc2c(N)ncnc21 (some centres undefined) , I found its Inhibition index recorded as 0.028

Looking up `Nc1ncnc2c1ncn2[C@@H]1O[C@H](CCP(=O)(O)O)[C@@H](O)[C@H]1O` , I found its Inhibition index recorded as 0.036

Looking up `Nc1ncnc2c1ncn2[C@@H]1O[C@H](COS(=O)(=O)O)[C@@H](O)[C@H]1O` , I found its Inhibition index recorded as 0.11

====

Listing of entries alongside the reported Relative Vmax.
# tgt: GTP:AMP phosphotransferase AK3, mitochondrial (Rattus norvegicus)
# experimentSummary: Relative Vmax value to rat adenylate kinase III.

Use these answered entries as a reference point.
CN(C)c1nc(N)c2ncn(C3O[C@H](COP(=O)(O)O)[C@@H](O)[C@H]3O)c2n1 (some centres undefined) :: 0
COP(=O)(O)C[C@H]1OC(n2cnc3c(N)ncnc32)[C@H](O)[C@@H]1O (some centres undefined) :: 0
CCC[C@@H](OP(=O)(O)O)[C@H]1OC(n2cnc3c(N)ncnc32)[C@H](O)[C@@H]1O (some centres undefined) :: 0

Looking up `Nc1nc(Cl)nc2c1ncn2[C@@H]1O[C@H](COP(=O)(O)O)[C@@H](O)[C@H]1O` , I found its Relative Vmax recorded as 7.5

Looking up CCC[C@H](OP(=O)(O)O)[C@H]1OC(n2cnc3c(N)ncnc32)[C@H](O)[C@@H]1O (some centres undefined) , I found its Relative Vmax recorded as 0.82

Looking up `CO[C@H]1[C@@H](O)[C@H](n2cnc3c(N)ncnc32)O[C@@H]1COP(=O)(O)O` , I found its Relative Vmax recorded as > 0

Looking up `CCNc1nc(N)c2ncn([C@@H]3O[C@H](COP(=O)(O)O)[C@@H](O)[C@H]3O)c2n1` , I found its Relative Vmax recorded as 2.7

Looking up `Nc1ncnc2c1ncn2[C@@H]1O[C@H](COS(=O)(=O)O)[C@@H](O)[C@H]1O` , I found its Relative Vmax recorded as 0

Looking up `CSc1nc(N)c2ncn([C@@H]3O[C@H](COP(=O)(O)O)[C@@H](O)[C@H]3O)c2n1` , I found its Relative Vmax recorded as > 0

Sourced from ChEMBL document CHEMBL1122090
